Test system: PfAtg8 WT
Format: binding, P. falciparum
conditionDetails: ratio of WT to K19E/K47E normalized response; hit threshold at least 1.5
We use 2 as the dividing line for (WTRU/NOISE)/(MutRU/NOISE): on or above the line is Y, below is N.

As a guide, the following entries are already answered.
{"columns": ["molecule", "answerLabel"],
 "data": [
  ["O=C1CC(=O)c2ccccc21 [Fragment 792, 1,3-indandione]", "Y"],
  ["O=[N+]([O-])c1ccc(Cl)c2nonc12 [Fragment 470, 4-chloro-7-nitrobenzofurazan]", "N"],
  ["O=[N+]([O-])c1ccc(O)c(O)c1 [Fragment 537, 4-nitrocatechol]", "N"],
  ["Oc1cccc(O)c1O [Fragment 410, 1,2,3-benzenetriol]", "Y"]
]}

Next item in the queue.
Is the recorded value of (WTRU/NOISE)/(MutRU/NOISE) equal to or greater than 2 for this molecule? Oc1ccc(O)c(O)c1 [Fragment 408, 1,2,4-benzenetriol] Y
